Target: T1, mouse Angiopoietin-2 (mouse, UniProt O35608 19-496)
T1 construct: Used as conditioned medium of transfectants; also called mAng-2; mouse Ang-2
T1 sequence: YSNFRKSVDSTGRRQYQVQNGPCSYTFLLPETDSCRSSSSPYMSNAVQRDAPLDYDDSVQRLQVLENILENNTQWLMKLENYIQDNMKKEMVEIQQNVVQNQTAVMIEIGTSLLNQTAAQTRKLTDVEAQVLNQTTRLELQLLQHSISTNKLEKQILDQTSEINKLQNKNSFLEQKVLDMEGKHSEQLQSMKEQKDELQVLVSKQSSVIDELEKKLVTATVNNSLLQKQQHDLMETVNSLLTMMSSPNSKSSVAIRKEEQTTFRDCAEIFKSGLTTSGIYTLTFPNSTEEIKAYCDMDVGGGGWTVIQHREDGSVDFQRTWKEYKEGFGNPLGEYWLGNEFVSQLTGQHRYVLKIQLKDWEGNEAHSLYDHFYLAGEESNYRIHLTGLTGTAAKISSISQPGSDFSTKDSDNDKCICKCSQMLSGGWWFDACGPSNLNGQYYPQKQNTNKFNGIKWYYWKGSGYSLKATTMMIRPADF
Assay: ELISA, recombinant mouse Ang-2
Observation type: binding result

* mAb 5.39.1 (antibody, V domains shown, Human hybridoma IgG (XenoMouse); also called x5.39) VH: QVQLVQSGAEVTKPGASVKVSCKASGYTFTAYHMYWVRQAPGQGLEWMGWINPNSGGTNYAQKFQGRVTMTRDTSISTAYMELSRLRSDDSPVYYCARDQGIAAAGPFDYWGQGTLVTVSS VL: EIVMTQSPATLSVSPGDRATLSCRASQSVSSNFAWYQQKPGQAPRLLIYGSSTRATGIPARFSGSGSGTEFTLTISSLQSEDFAVYYCQQYHYWWTFGQGTKVEFKR | no binding
* mAb 5.35.1 (antibody, V domains shown, Human hybridoma IgG (XenoMouse); also called x5.35) VH: EVQLVESGGGVVRPGGSLRLSCTTSGFTFDDYGMSWVRQAPGKGLEWVSGINWNGGSTVYADSVKGRFTISRDSAKNSLYLQMNSLRAEDTALYHCARNKQWLWYFDLWGRGTLVTVSS VL: EIVMTQSPATLSVSPGERATLSCRASQSVSSNLAWYQQKPGQAPRLLIYGASTRATGIPARFSGSGSGTEFTLTISSLQSEDFAVYYCEQYNNWPLTFGGGTKVEIKR | no binding
* mAb 5.62.1 (antibody, V domains shown, Human hybridoma IgG (XenoMouse); also called x5.62) VH: EVQLVESGGGLVQPGGSLRLSCAASGFTFSSYWMSWVRQAPGKGLEWVANIKQDGSEKYYVDSVKGRFTISRDNAKNSLYLQMNSLRAEDTAVYYCARDPGIAVAGPFDYWGQGTLVTVSS VL: EIVMTQSPATLSVSPGERATLSCRASQSVSSNLAWYQQKPGQAPRLLIYGAFTRATGIPARFSGSGSGTEFTLTISSLQSEDFAVYYCQQYNHWWTFGQGTKVGIKR | no binding

Recorded values, source patent US20080267971A1.
